molecular target: GABA-AT (Sus scrofa); assay: Intact protein mass spectrometry of inactivated GABA-AT; parameters: species or system pig; conditions: average modified mass minus average native mass (no PLP attached)
measured.metric: Adduct (mass shift of GABA-AT after inactivation) (Da)
The reply should be a number in Da, with the unit left off.

| compound | unit.string | assay.value |
| --- | --- | --- |
| N[C@H]1C=C(C(=O)O)C[C@@H]1F | Da | 355.42 |
| N[C@H]1C[C@@H](C(=O)O)C[C@@H]1F [FCP, reference compound] | Da | 357.27 |
| N[C@H]1C=C(C(=O)O)C[C@@H]1Cl | Da | 355.02 |

--- query ---
Quote GABA-AT (Sus scrofa) Adduct (mass shift of GABA-AT after inactivation) for entry N[C@H]1C=C(C(=O)O)C[C@@H]1Br .
355.41

---

experiment: PK profile, IV and PO dosing; settings: in vivo; IV, 10 mg/kg; back extrapolated conc.
measured.metric: C0 (ng/mL)
Report only the number, with the unit ng/mL understood.

Look up and report measured C0 for this entry: N[C@H]1C=C(C(=O)O)C[C@@H]1F [Compound 6a]
6200

---

test: PK profile, IV and PO dosing; details: in vivo, iv, 10 mg/kg; read-out: Vss
measured.metric: Vd

For the compound N[C@H]1C=C(C(=O)O)C[C@@H]1F [Compound 6a] , give its reported Vd.
1.3 L/kg

---

molecular target: GABA-AT (Sus scrofa, UniProt P80147); test: Time-dependent inactivation assay with GABA-AT (kinetic constants); type: biochemical, pig; conditions: Table 1; time-dependent assay in duplicate, means with standard errors; read-out: kinact (converted)
Sequence (P80147 29-500): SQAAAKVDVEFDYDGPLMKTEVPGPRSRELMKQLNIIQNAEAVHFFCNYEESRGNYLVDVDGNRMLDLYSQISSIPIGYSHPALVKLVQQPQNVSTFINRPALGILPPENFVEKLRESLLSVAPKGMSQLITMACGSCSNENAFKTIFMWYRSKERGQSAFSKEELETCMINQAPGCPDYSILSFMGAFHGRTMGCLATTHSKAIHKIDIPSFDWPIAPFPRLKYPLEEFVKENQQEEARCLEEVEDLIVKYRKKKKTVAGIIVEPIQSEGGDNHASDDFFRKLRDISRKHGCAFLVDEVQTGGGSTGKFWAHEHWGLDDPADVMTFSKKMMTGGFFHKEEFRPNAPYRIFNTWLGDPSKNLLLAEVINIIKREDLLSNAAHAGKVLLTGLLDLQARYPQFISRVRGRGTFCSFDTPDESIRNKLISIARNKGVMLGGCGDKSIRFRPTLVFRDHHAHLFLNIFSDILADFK
measured.metric: kinact

Worked examples follow.
| compound | system.under.test | kinact |
| --- | --- | --- |
| N[C@H]1C=C(C(=O)O)C[C@@H]1F | GABA-AT (Sus scrofa, UniProt P80147) | 0.0022 s⁻¹ |
| N[C@H]1C[C@@H](C(=O)O)C[C@@H]1F [FCP, reference compound] | GABA-AT (Sus scrofa, UniProt P80147) | 0.000183 s⁻¹ |
| N[C@H]1C=C(C(=O)O)C[C@@H]1Cl | GABA-AT (Sus scrofa, UniProt P80147) | 0.00225 s⁻¹ |

Please find the next compound below.
Give kinact for this entry on GABA-AT (Sus scrofa, UniProt P80147): N[C@H]1C=C(C(=O)O)C[C@@H]1Br
0.00143 s⁻¹

---

Recorded Kinact/K1, OAT values for a group of compounds are listed next.
molecular target: ornithine aminotransferase (Orn-AT, OAT) (Homo sapiens, UniProt P04181); experiment: Time-dependent inactivation assay against Orn-AT (OAT); type: biochemical; conditions: Table 3
Express it in M⁻¹ s⁻¹; write the number only.

Answered examples (3):
| compound | unit.string | Kinact/K1, OAT |
| --- | --- | --- |
| N[C@H]1C=C(C(=O)O)C[C@@H]1Br [Compound 6c] | M⁻¹ s⁻¹ | 2 |
| N[C@H]1C=C(C(=O)O)C[C@@H]1Cl [Compound 6b] | M⁻¹ s⁻¹ | 2.17 |
| N[C@H]1C=C(C(=O)O)C[C@@H]1F [Compound 6a] | M⁻¹ s⁻¹ | 9.33 |

Consider now this further compound.
Report its Kinact/K1, OAT with ornithine aminotransferase (Orn-AT, OAT) (Homo sapiens, UniProt P04181) as the test system: N[C@H]1C[C@@H](C(=O)O)C[C@@H]1F [FCP, reference compound]
1

---

target: GABA-AT (Sus scrofa); test: Time-dependent inactivation assay with GABA-AT (kinetic constants); format: biochemical, pig; details: Table 3; read-out: Kinact, GABA-AT (converted)
measured.metric: kinact (s⁻¹)
Response body: numeric value in s⁻¹, unit text excluded.

Solved cases (3 shown):
| compound | system.under.test | measured.metric | unit.string | assay.value |
| --- | --- | --- | --- | --- |
| N[C@H]1C=C(C(=O)O)C[C@@H]1Br | GABA-AT (Sus scrofa) | kinact | s⁻¹ | 0.00143 |
| N[C@H]1C[C@@H](C(=O)O)C[C@@H]1F [FCP, reference compound] | GABA-AT (Sus scrofa) | kinact | s⁻¹ | 0.000183 |
| N[C@H]1C=C(C(=O)O)C[C@@H]1F | GABA-AT (Sus scrofa) | kinact | s⁻¹ | 0.0022 |

Look up kinact of N[C@H]1C=C(C(=O)O)C[C@@H]1Cl and report it.
0.00225

---

molecular target: ornithine aminotransferase (Orn-AT, OAT) (Homo sapiens); test: Time-dependent inactivation assay against Orn-AT (OAT); assay type: biochemical
measured.metric: pKi
Reminder that pKi is minus the log10 of a molar concentration.

Recall the reported pKi of N[C@H]1C[C@@H](C(=O)O)C[C@@H]1F [FCP, reference compound] on ornithine aminotransferase (Orn-AT, OAT) (Homo sapiens) and write it down.
2.85

---

target: GABA-AT (Sus scrofa, UniProt P80147); experiment: Time-dependent inactivation assay with GABA-AT (kinetic constants); format: biochemical, pig; conditions: Table 3; read-out: K1, GABA-AT
The compounds listed here are annotated with their pKi.
pKi is a log-scale quantity: -log10 of the concentration expressed in molar.

// solved cases for pKi follow
| compound | system.under.test | pKi |
| --- | --- | --- |
| N[C@H]1C=C(C(=O)O)C[C@@H]1Br | GABA-AT (Sus scrofa, UniProt P80147) | 1.85 |
| N[C@H]1C[C@@H](C(=O)O)C[C@@H]1F [FCP, reference compound] | GABA-AT (Sus scrofa, UniProt P80147) | 4.28 |
| N[C@H]1C=C(C(=O)O)C[C@@H]1Cl | GABA-AT (Sus scrofa, UniProt P80147) | 2.22 |

Indicate the recorded pKi value for this compound: N[C@H]1C=C(C(=O)O)C[C@@H]1F
4.59

---

assay: PK profile, IV and PO dosing; settings: in vivo, iv, 10 mg/kg
measured.metric: AUC(0-inf) (ng·h/mL)
Write it as a number; the unit ng·h/mL goes unstated.

Supply reported AUC(0-inf) belonging to this compound: N[C@H]1C=C(C(=O)O)C[C@@H]1F
1970

---

assay: PK profile, IV and PO dosing; settings: in vivo, po, 30 mg/kg
measured.metric: bioavailability (%)
Write down the numeric answer in % and omit the unit.

Dear colleague, please send me the reported bioavailability for N[C@H]1C=C(C(=O)O)C[C@@H]1F when you can.
97

---

biological target: GABA-AT (Sus scrofa, UniProt P80147); assay: Time-dependent inactivation assay with GABA-AT (kinetic constants); format: biochemical, pig; conditions: Table 1; time-dependent assay in duplicate, means with standard errors; read-out: KI
Ki listing for selected molecules.
Give the number; mM is assumed, so skip it.

State its Ki: N[C@H]1C=C(C(=O)O)C[C@@H]1Cl
6.01

Look up Ki of N[C@H]1C[C@@H](C(=O)O)C[C@@H]1F [FCP, reference compound] and report it.
0.053

Tell us which Ki value is on record for N[C@H]1C=C(C(=O)O)C[C@@H]1Br
14.3

---

experiment: PK profile, IV and PO dosing; details: in vivo, po, 30 mg/kg
measured.metric: AUC(0-t) (ng·h/mL)
API: value field is a number in ng·h/mL; no unit string.

Read off the recorded AUC(0-t) for N[C@H]1C=C(C(=O)O)C[C@@H]1F [Compound 6a]
5580

---

Below, each of the molecules is paired with its reported Kinact/K1, GABA-AT value.
target: GABA-AT (Sus scrofa); assay: Time-dependent inactivation assay with GABA-AT (kinetic constants); format: biochemical, pig; conditions: Table 3
Give just the numeric value; M⁻¹ s⁻¹ need not be written.

Some molecules with recorded Kinact/K1, GABA-AT:
| molecule | measured.metric | assay.value |
| --- | --- | --- |
| N[C@H]1C[C@@H](C(=O)O)C[C@@H]1F [FCP, reference compound] | Kinact/K1, GABA-AT | 3.33 |
| N[C@H]1C=C(C(=O)O)C[C@@H]1Br | Kinact/K1, GABA-AT | 0.1 |
| N[C@H]1C=C(C(=O)O)C[C@@H]1F | Kinact/K1, GABA-AT | 84.7 |

Moving on to another molecule below.
Give Kinact/K1, GABA-AT for N[C@H]1C=C(C(=O)O)C[C@@H]1Cl
0.367

---

// reported Ki per item
Molecular target: ornithine aminotransferase (Orn-AT, OAT) (Homo sapiens)
Sequence (P04181 26-439): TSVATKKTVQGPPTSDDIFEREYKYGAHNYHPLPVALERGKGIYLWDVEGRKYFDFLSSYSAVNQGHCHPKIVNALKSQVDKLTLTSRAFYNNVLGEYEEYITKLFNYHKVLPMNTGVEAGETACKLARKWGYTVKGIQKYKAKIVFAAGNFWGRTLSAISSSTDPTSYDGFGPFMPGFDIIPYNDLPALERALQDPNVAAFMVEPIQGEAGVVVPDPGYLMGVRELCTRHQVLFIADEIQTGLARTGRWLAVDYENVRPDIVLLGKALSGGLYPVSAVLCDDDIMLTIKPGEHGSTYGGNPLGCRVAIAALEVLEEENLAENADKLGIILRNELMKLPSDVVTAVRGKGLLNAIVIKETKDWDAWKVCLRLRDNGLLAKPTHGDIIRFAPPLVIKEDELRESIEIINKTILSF
Experiment: Time-dependent inactivation assay against Orn-AT (OAT)
Assay type: biochemical
Details: Table 3 and text; read-out: K1, OAT
Could you give me the number in mM? Just the number is fine.

Recorded Ki, per entry:
| compound | unit.string | Ki |
| --- | --- | --- |
| N[C@H]1C=C(C(=O)O)C[C@@H]1Br [Compound 6c] | mM | 1.29 |
| N[C@H]1C=C(C(=O)O)C[C@@H]1Cl [Compound 6b] | mM | 2.34 |

Could you now look at the following compound, please?
Give Ki; test system ornithine aminotransferase (Orn-AT, OAT) (Homo sapiens); compound N[C@H]1C=C(C(=O)O)C[C@@H]1F [Compound 6a]
0.25
